The reported numbers originate from paper PMC7618375.

- TARGET OF ASSAY: T1, MPP8 chromodomain (CD, residues 55-116) (human, UniProt Q99549 55-116)
- T1 construct: MPP8 (M-phase phosphoprotein 8), human, chromodomain, residues 55-116, UniProt Q99549; Cloned in pET15b with a TEV site (ENLYFQG) in place of the thrombin site; also called MPP8 CD; M-phase phosphoprotein 8 chromodomain; source: E. coli BL21 (DE3), purified (Ni-NTA, Mono Q, Superdex 75 SEC)
- T1 sequence (looked up): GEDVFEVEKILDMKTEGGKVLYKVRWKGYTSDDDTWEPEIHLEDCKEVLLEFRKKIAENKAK
- PROCEDURE DETAILS: ITC; 750 uM peptide in the syringe titrated into 50 uM MPP8 CD in the cell; 50 mM HEPES pH 7.4, 0.1 M NaCl, 0.5 mM TCEP, 25 °C; single-site model
- PROTOCOL CONDITIONS: both partners purified
No end group written: not given here. Me2 = dimethyl on the lysine side-chain amine
PROPERTY: pKd
The value called pKd is obtained by taking minus log10 of the concentration in mol/L.

Form field: reported pKd of TKQTARK(Me2)STGGK [Histone H3 peptide dimethylated at lysine 9]
5.77
